Just for reference, paper PMC11480844 is where these values come from.

B1: H2-Kb / Ed5 (parent complex)
chain 1: GDSVTQTEGPVTVSESESLIINCTYSATSIAYPNLFWYVRYPGEGLQLLLKVITAGQKGSSRGFEATYNKETTSFHLQKASVQESDSAVYYCALGSYNQGKLIFGQGTKLSIKP
chain 2: DTTVKQNPRYKLARVGKPVNLICSQTMNHDTMYWYQKKPNQAPKLLLFYYDKILNREADTFEKFQSSRPNNSFCSLYIGSAGLEYSAMYLCASSRRLGASQNTLYFGAGTRLSVL
chain 3: not shown
chain 4: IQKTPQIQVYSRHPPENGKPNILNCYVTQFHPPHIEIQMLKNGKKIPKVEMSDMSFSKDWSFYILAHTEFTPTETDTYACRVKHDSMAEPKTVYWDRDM
chain 5: SIINFEKL

Variants of: B1
Assay: % of reporter cells activated (NFAT-GFP), raw; also: test concentration or dose not given here
Quantity Name: ratio to parent

Field: example entries. Status: answers known.
[
  {
    "Mutation": "chain 5 I3Q",
    "Quantity Name": "ratio to parent",
    "Obs Value": 0.162
  },
  {
    "Mutation": "chain 5 N4K",
    "Quantity Name": "ratio to parent",
    "Obs Value": 0.0781
  }
]

[P] chain 5 E6S
[Q] chain 5 I2L
[R] chain 5 N4V
Qu. Reorder the items by ratio to parent, least to greatest. Your answer should be the labels, listed in the requested order.
Ans. R, P, Q
(R: 0.0109, P: 0.585, Q: 0.974)

[P] chain 5 L8M
[Q] chain 5 I3T
Qu. Which shows the larger ratio to parent value: P or Q ? Answer format: the label of the selected item.
Ans. P
(P: 0.752, Q: 0.512)
